src = patent US20190233498A1

Target: T1, human PACAP38 (human, not fully specified; C-terminal lysine is amidated; N-terminal or C-terminal biotin in the HTRF and PC-12 cell binding assays)
T1 construct: synthetic peptide, bought; also called huPACAP (1-38)
T1 peptide: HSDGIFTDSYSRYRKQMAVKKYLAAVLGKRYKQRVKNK
Test: SPR, Ab immobilised

- BINDER: "anti-PACAP antibody Ab2 (antibody, human IgG1, kappa, N297A, V domains shown, full-length rabbit/human chimeric antibody) VH: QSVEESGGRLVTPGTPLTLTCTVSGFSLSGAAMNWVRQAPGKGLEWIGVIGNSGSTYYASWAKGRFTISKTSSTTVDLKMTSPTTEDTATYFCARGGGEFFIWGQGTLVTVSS VL: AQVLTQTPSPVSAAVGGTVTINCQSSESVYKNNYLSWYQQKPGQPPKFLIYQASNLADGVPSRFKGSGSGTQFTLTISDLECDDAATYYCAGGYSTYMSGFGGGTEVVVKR"
  kon / M⁻¹ s⁻¹: 230000
- BINDER: "anti-PACAP antibody Ab5.H (antibody, human IgG1, kappa, N297A, V domains shown, humanized form of Ab5, full length) VH: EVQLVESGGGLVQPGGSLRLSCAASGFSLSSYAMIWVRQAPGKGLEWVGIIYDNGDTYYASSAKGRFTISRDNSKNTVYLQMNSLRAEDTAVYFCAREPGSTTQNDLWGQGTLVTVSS VL: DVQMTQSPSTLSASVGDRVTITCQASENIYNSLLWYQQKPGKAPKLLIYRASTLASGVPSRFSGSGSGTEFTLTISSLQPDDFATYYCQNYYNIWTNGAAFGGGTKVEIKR"
  kon / M⁻¹ s⁻¹: 550000
- BINDER: "anti-PACAP antibody Ab18 (antibody, human IgG1, kappa, N297A, V domains shown, full-length rabbit/human chimeric antibody) VH: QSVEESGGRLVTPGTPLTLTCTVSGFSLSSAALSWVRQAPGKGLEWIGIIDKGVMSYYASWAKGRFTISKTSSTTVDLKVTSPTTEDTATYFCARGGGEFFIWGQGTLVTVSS VL: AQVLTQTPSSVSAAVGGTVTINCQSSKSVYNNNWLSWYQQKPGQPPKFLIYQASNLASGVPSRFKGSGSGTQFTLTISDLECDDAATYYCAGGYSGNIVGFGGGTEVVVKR"
  kon / M⁻¹ s⁻¹: 430000
- BINDER: "anti-PACAP antibody Ab11 (antibody, human IgG1, kappa, N297A, V domains shown, full-length rabbit/human chimeric antibody) VH: QSVEESGGRLVTPGTPLTLTCTASGFSLSRYAMGWVRQAPGKGLEWIGDISTYGTTDYASWVNGRFTISRTSTTVTLKMTSLTTEDTATYFCARDYWLSLWGQGTLVTVSS VL: AAVLTQTPSPVSAAVGGTVTIKCQSSQSVYDNNALAWYQQKPGQPPKLLIYAASNLASGVPDRFSGSGSGTQFTLTISGVQCDDAATYYCLGGYDDAADNAFGGGTEVVVKR"
  kon / M⁻¹ s⁻¹: 270000
- BINDER: "anti-PACAP antibody Ab6 (antibody, human IgG1, kappa, N297A, V domains shown, full-length rabbit/human chimeric antibody) VH: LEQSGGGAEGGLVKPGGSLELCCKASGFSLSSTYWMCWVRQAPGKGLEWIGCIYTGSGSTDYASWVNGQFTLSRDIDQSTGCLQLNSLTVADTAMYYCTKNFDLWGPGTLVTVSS VL: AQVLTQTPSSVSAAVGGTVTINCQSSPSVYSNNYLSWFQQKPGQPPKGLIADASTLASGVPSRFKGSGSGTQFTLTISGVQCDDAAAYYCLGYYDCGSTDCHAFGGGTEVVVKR"
  kon / M⁻¹ s⁻¹: 300000
